STUDY_SYSTEM: AR (Homo sapiens, UniProt P10275)
Construct: expressed in transfected cells; host or cells: CV-1 cells, transient transfection
Sequence (P10275 whole entry): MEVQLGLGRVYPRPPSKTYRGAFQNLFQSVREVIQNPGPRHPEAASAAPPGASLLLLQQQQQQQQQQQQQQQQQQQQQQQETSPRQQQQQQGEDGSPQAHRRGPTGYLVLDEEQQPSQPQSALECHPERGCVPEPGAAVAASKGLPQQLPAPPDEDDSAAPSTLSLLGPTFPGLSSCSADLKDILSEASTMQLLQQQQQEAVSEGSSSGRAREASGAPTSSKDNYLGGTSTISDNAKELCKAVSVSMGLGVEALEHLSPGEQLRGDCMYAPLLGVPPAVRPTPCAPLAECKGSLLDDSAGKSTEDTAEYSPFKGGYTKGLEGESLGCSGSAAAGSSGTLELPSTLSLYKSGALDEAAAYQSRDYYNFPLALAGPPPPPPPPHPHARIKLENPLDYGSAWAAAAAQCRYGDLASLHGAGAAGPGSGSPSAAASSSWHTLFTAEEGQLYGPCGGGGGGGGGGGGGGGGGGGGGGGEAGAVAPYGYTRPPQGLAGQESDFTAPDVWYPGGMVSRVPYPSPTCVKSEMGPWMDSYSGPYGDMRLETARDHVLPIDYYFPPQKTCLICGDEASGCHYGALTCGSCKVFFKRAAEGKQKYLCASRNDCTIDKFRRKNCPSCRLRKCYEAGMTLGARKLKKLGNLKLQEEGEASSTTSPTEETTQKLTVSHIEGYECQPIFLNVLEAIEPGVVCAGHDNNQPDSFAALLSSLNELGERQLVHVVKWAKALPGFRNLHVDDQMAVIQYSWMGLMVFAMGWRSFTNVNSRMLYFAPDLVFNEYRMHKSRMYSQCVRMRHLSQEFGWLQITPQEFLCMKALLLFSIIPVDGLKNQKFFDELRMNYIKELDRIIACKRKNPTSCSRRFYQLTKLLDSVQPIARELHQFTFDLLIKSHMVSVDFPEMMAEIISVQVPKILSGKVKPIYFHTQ
EXPERIMENTAL_DETAILS: Co-transfection assay, AR antagonist activity
Format: cell-based
I'd appreciate it if you could supply IC50 values for the items below.
Numbers only, in nM.

Worked cases, answers included:
- COMPOUND: "CC1=CC(C)(C)Nc2ccc3c(c21)C(c1cccc(C(F)(F)F)c1)Oc1ccccc1-3 (racemic)"
  IC50 [nM]: 470
- COMPOUND: "C=C1CC(C)(C)Nc2ccc3c(c21)C(c1cccc(F)c1)Oc1ccccc1-3 (racemic)"
  IC50 [nM]: 79
- COMPOUND: "CC1=CC(C)(C)Nc2ccc3c(c21)C(c1cccc(F)c1)Oc1ccccc1-3 (racemic)"
  IC50 [nM]: 520

Hi, could you look up IC50 for each item in my list?
1. CC1=CC(C)(C)Nc2ccc(-c3cccc(C#N)c3)cc21
2. CC1=CC(C)(C)Nc2ccc3c(c21)C(c1ccsc1)Oc1ccccc1-3 (racemic)

stdout:
1. 140
2. 290

----------
STUDY_SYSTEM: human PR-B (Homo sapiens, UniProt P06401)
Construct: expressed in transfected cells; host or cells: CV-1 cells (African green monkey kidney fibroblasts), transient transfection
EXPERIMENTAL_DETAILS: Co-transfection assay, PR antagonist activity
Format: cell-based
CONDITION_DETAILS: CV-1, read-out: PR Antagonist CV-1 Cells Efficacy (%)
Lab note - cut at 70% for Emax: T if strictly below, F if not.

Recorded results for 8 molecules are shown here.
- MOLECULE: "CC1=CC(C)(C)Nc2ccc3c(c21)/C(=C/c1ccc(F)cc1)Oc1ccccc1-3 [Compound 221]"
  CLASS: "T"
- MOLECULE: "CC1=CC(C)(C)Nc2cc(C)c3c(c21)/C(=C/c1ccccc1)Oc1ccc(F)cc1-3 [Compound 377]"
  CLASS: "T"
- MOLECULE: "CC1CC(C)(C)Nc2ccc(-c3cc(F)cc(C#N)c3)cc21 (racemic) [Compound 455]"
  CLASS: "F"
- MOLECULE: "C[C@H]1C(=O)C(C)(C)Nc2ccc3c(c21)O[C@H](c1ccccc1)c1ccccc1-3 (relative stereo) [Compound 391]"
  CLASS: "T"
- MOLECULE: "CC1=CC(C)(C)Nc2ccc3c(c21)C(c1cccc(F)c1)Oc1ccccc1-3 (racemic) [Compound 191]"
  CLASS: "F"
- MOLECULE: "CC1=CC(C)(C)Nc2ccc3c(c21)C(c1ccccc1)Oc1ccccc1-3 (racemic) [Compound 161]"
  CLASS: "F"
- MOLECULE: "CC1(C)Nc2ccc3c(c2C(=O)C1(C)C)C(c1ccc(Cl)cc1)Oc1ccccc1-3 (racemic) [Compound 379]"
  CLASS: "F"
- MOLECULE: "CC1=CC(C)(C)Nc2ccc3c(c21)C(c1ccc(Cl)cc1)Oc1ccccc1-3 (racemic) [Compound 163]"
  CLASS: "T"

stdin: Confirm or reject: Emax of CC1=CC(C)(C)Nc2ccc3c(c21)/C(=C/c1ccccc1C)Oc1ccc(F)cc1-3 [Compound 374] lies strictly below 70%
stdout: T

stdin: Does CC1C(=O)C(C)(C)Nc2ccc(-c3cc(F)cc(C#N)c3)cc21 (centres unmarked) [Compound 286] have Emax strictly under 70%?
stdout: F

stdin: Regarding CC1=CC(C)(C)Nc2ccc3c(c21)/C(=C/c1ccccc1F)Oc1ccccc1-3 [Compound 228] , kindly confirm whether its Emax is beneath 70%.
stdout: T

stdin: Is 70% strictly greater than the molecule's reported Emax? molecule: CC1=CC(C)(C)Nc2ccc3c(c21)/C(=C/c1ccccc1)Oc1ccccc1-3 [Compound 220]
stdout: T

stdin: is_below(Emax, 70%) for CC1=CC(C)(C)Nc2ccc3c(c21)C(c1cccc(C(F)(F)F)c1)Oc1ccccc1-3 (racemic) [Compound 195] ?
stdout: T

stdin: Record CC1=CC(C)(C)Nc2ccc(-c3cccc(F)c3F)cc21 [Compound 152] : is its Emax strictly below 70%?
stdout: F

----------
What Emax was measured for each of the following?
STUDY_SYSTEM: human PR-B (Homo sapiens, UniProt P06401)
Construct: expressed in transfected cells; host or cells: CV-1 cells (African green monkey kidney fibroblasts), transient transfection
Sequence (P06401 1-933): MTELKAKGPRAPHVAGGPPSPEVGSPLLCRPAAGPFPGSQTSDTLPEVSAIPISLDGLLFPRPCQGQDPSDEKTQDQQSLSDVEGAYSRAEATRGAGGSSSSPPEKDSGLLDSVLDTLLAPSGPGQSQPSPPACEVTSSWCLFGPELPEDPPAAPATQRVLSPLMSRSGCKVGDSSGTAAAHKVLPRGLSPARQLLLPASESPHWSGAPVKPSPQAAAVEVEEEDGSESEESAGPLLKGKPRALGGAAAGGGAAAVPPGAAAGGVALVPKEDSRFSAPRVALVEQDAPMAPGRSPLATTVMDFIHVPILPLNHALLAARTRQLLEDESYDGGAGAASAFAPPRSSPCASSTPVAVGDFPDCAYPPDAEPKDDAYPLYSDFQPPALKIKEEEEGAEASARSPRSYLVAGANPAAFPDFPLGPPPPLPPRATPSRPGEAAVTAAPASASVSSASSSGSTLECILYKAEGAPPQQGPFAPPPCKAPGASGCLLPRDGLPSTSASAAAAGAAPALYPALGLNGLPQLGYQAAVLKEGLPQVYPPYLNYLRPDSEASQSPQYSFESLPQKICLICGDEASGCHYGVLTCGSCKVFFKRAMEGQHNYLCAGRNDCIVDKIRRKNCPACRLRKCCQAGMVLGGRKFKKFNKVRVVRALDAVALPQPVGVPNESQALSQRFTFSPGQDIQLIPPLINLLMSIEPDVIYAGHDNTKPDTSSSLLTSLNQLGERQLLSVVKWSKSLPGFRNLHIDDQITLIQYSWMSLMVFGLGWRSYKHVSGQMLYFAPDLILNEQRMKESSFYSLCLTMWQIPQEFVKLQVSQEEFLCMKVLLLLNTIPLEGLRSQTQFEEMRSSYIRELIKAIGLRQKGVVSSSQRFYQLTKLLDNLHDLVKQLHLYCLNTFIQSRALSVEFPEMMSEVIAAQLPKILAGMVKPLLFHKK
EXPERIMENTAL_DETAILS: Co-transfection assay, PR antagonist activity
Format: cell-based
CONDITION_DETAILS: CV-1, read-out: PR Antagonist CV-1 Cells Efficacy (%)
Numbers only, in %.

- SMILES_RECORD: "CC1=CC(C)(C)Nc2c(F)cc(-c3cccc([N+](=O)[O-])c3)cc21"
  QUANTITY_KIND: "Emax"
  OUTPUT_UNIT: "%"
  OBSERVED_MEASUREMENT: 79

stdin: Entry `CC1=CC(C)(C)Nc2ccc(-n3cnc(Cl)c3Cl)cc21` : reported Emax = ?
stdout: 91

----------
STUDY_SYSTEM: human PR-B (Homo sapiens)
Construct: expressed in transfected cells; host or cells: CV-1 cells (African green monkey kidney fibroblasts), transient transfection
Sequence (P06401 1-933): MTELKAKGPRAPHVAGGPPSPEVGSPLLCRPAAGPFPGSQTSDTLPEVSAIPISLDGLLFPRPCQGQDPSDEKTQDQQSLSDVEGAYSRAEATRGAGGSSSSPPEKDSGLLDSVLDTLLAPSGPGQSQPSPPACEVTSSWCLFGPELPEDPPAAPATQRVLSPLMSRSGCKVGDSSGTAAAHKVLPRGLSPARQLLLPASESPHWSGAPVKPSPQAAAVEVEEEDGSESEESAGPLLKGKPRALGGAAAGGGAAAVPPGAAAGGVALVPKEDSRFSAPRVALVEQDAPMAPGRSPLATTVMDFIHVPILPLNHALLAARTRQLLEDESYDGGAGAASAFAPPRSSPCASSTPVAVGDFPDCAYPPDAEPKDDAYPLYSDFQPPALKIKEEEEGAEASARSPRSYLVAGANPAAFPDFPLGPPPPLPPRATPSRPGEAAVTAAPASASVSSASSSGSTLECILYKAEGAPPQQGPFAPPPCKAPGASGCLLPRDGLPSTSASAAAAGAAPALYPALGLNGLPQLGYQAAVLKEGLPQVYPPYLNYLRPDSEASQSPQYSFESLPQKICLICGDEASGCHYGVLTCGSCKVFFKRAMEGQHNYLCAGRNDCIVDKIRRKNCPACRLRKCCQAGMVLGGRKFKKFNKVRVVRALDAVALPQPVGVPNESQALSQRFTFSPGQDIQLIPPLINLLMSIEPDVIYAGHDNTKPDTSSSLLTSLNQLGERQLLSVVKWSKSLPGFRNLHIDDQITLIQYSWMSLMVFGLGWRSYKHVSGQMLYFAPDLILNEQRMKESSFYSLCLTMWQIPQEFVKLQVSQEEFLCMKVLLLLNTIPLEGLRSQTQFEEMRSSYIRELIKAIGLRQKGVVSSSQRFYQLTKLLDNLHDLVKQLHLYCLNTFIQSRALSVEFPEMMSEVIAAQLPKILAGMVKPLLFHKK
EXPERIMENTAL_DETAILS: Co-transfection assay, PR antagonist activity;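 note: monkey kidney fibroblasts co-transfected with receptor expression plasmid and hormone-responsive luciferase reporter, antagonism read as reduced luciferase signal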
Format: cell-based
QUANTITY_KIND: pIC50
Give bare numbers, as −log10 of the molar value.

Reference set (4 entries):
- MOLECULE: "CC1=CC(C)(C)Nc2ccc3c(c21)C(c1ccsc1)Oc1ccccc1-3 (racemic)"
  OBSERVED_MEASUREMENT: 6.84
- MOLECULE: "C=C1CC(C)(C)Nc2ccc3c(c21)C(c1cccc(F)c1)Oc1ccccc1-3 (racemic)"
  OBSERVED_MEASUREMENT: 7.05
- MOLECULE: "CC1CC(C)(C)Nc2cc3[nH]c(=O)cc(C(F)(F)F)c3cc21 (racemic)"
  OBSERVED_MEASUREMENT: 6.64
- MOLECULE: "CC1=CC(C)(C)Nc2ccc(-c3cccc(F)c3F)cc21"
  OBSERVED_MEASUREMENT: 6.89

# evaluate next
stdin: Param readout = pIC50; param system = human PR-B (Homo sapiens); param query = C[C@H]1C(=O)C(C)(C)Nc2ccc3c(c21)O[C@H](c1ccccc1)c1ccccc1-3 (relative stereo) ; response: value
stdout: 6.92
